Tested on: LLC-PK1
Procedure summary: Flux ratio of permeability from apical to basolateral to basolateral to apical side in pig LLC-PK1 cells after 2 hrs
Assay type: ADME, cell-based, Sus scrofa
Test conditions: llc-pk1, 2 h
Reported endpoint: Ratio
Give only the figure.

Reference set (5 entries):
| Test smiles | Target or system | Experimental value |
| --- | --- | --- |
| Cc1ncc(OC[C@@]2(c3cccc(F)c3)C[C@H]2C(=O)Nc2ccc(C#N)cn2)c(C)n1 | LLC-PK1 | 1.09 |
| COc1cc(NC(=O)[C@@H]2C[C@@]2(COc2cnc(C)nc2C)c2cccc(F)c2)ncc1F | LLC-PK1 | 1.19 |
| COCc1nc(C)ncc1OC[C@@]1(c2cccc(F)c2)C[C@H]1C(=O)Nc1ccc(F)cn1 | LLC-PK1 | 0.84 |
| COc1nc(NC(=O)[C@@H]2C[C@@]2(COc2cnc(C)nc2C)c2cccc(F)c2)ccc1F | LLC-PK1 | 0.81 |
| COCc1nc(C)ncc1OC[C@@]1(c2ccccc2)C[C@H]1C(=O)Nc1ccc(F)cn1 | LLC-PK1 | 0.97 |

Query: What does the data say about its Ratio? Entry: COc1ccc([C@]2(COc3cnc(C)nc3C)C[C@H]2C(=O)Nc2ccc(F)cn2)cc1F
Reply: 0.8
